Where do these numbers come from? They come from patent US20100172907A1.

molecular target: T1, BSA-conjugated Aβ heptapeptide LVFFAEC (reading uncertain; also: BSA conjugate); experiment: ELISA;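 also: ELISA binding of human antibody (10 or 2 µg/ml) to plate-coated BSA–peptide conjugates, detected with HRP anti-human Ig and TMB colour, mock-treated BSA as negative control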
T1 construct: also called Peptide 17-22
T1 peptide: LVFFAEC([NSMP-BSA])
Groups on a side chain read outwards from the residue. No end group written: not given here. NSMP = not defined here
Peptide-ratio 17-22/2-7 overview

{"BINDER": "MS-R IgG1 3.6.H5 × 3.6.L2 (antibody, V domains shown, full-length human IgG1; VH entry starts at QLVESGG) VH: ELVESGGGLVQPGGSLRLSCAASGFTFSSYAMSWVRQAPGKGLEWVSAISESGKTKYYADSVKGRFTISRDNSKNTLYLQMNSLRAEDTAVYYCARLTHYARYYRYFDVWGQGTLVTVSS VL: DIVLTQSPATLSLSPGERATLSCRASQFLSRYYLAWYQQKPGQAPRLLIYGASSRATGVPARFSGSGSGTDFTLTISSLEPEDFAVYYCQQTYNYPPTFGQGTKVEIKR", "Peptide-ratio 17-22/2-7": 0.64}
{"BINDER": "MS-R #7.9.H7 IgG1 (antibody, V domains shown, full-length human IgG1; also called MAB 31; MS-Roche IgG #7.9.H7) VH: QVELVESGGGLVQPGGSLRLSCAASGFTFSSYAMSWVRQAPGKGLEWVSAINASGTRTYYADSVKGRFTISRDNSKNTLYLQMNSLRAEDTAVYYCARGKGNTHKPYGYVRYFDVWGQGTLVTVSS VL: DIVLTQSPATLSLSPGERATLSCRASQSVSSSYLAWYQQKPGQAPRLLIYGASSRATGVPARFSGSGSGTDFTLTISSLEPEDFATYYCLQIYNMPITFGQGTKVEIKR", "Peptide-ratio 17-22/2-7": 0.17}
{"BINDER": "MS-R IgG 7.11H2 (antibody, V domains shown, full-length human IgG; also called 7.11H2 IgG) VH: QVELVESGGGLVQPGGSLRLSCAASGFTFSSYAMSWVRQAPGKGLEWVSAINANGYKKYYADSVKGRFTISRDNSKNTLYLQMNSLRAEDTAVYYCARGKGNTHKPYGYVRYFDVWGQGTLVTVSS VL: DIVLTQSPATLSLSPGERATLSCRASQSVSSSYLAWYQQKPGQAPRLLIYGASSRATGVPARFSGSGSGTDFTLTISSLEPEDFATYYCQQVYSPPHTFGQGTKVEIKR", "Peptide-ratio 17-22/2-7": 0.6}
{"BINDER": "MSR 7.9.H2 IgG1 (antibody, V domains shown, full-length human IgG1) VH: QVELVESGGGLVQPGGSLRLSCAASGFTFSSYAMSWVRQAPGKGLEWVSAINADGNRKYYADSVKGRFTISRDNSKNTLYLQMNSLRAEDTAVYYCARGKGNTHKPYGYVRYFDVWGQGTLVTVSS VL: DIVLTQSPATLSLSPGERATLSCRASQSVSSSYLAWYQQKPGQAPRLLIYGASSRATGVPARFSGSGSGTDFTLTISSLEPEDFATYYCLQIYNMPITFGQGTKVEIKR", "Peptide-ratio 17-22/2-7": 0.38}
{"BINDER": "MS-R IgG 8.2.H2 × 8.2.L1 (antibody, V domains shown, full-length human IgG) VH: QVELVESGGGLVQPGGSLRLSCAASGFTFSSYAMSWVRQAPGKGLEWVSAISRTGSKTYYADSVKGRFTISRDNSKNTLYLQMNSLRAEDTAVYYCARLLSRGYNGYYHKFDVWGQGTLVTVSS VL: DIVLTQSPATLSLSPGERATLSCRASQRVSGRYLAWYQQKPGQAPRLLIYGASSRATGVPARFSGSGSGTDFTLTISSLEPEDFATYYCQQLSSYPPTFGQGTKVEIKR", "Peptide-ratio 17-22/2-7": 1.54}
{"BINDER": "MS-R #7.12 IgG1 (antibody, V domains shown, full-length human IgG1) VH: QVELVESGGGLVQPGGSLRLSCAASGFTFSSYGMSWVRQAPGKGLEWVSNISGSGSSTYYADSVKGRFTISRDNSKNTLYLQMNSLRAEDTAVYYCARGKGNTHKPYGYVRYFDVWGQGTLVTVSS VL: DIVLTQSPATLSLSPGERATLSCRASQYVSSPYLAWYQQKPGQAPRLLISGSSNRATGVPARFSGSGSGTDFTLTISSLEPEDFAVYYCLQLYNIPNTFGQGTKVEIKR", "Peptide-ratio 17-22/2-7": 0.58}
